- Target Of Assay: human κ-chain (human)
- Assay Procedure: isothermal titration calorimetry, 800 µM L57H PpL into 40 µM kappa light chain, 25 °C, pH 8.0
Measurement Kind: Kd (µM)
Give bare numbers, in µM.

Looking for the measured Kd of L57H PpL (protein) MNIKFAGKETPETPEEPKEEVTIKVNLIFADGKIQTAEFKGTFEEATAEAYRYADLHAKVNGEYTADLEDGGNHMNIKFAGK , can you help? 5.2

Ref: patent US20020137918A1
